Measured values drawn from the nanobody polyreactivity screen of Harvey et al. (2022) for this set.

- test_details: yeast display, Sf9 membrane polyspecificity reagent, FACS + sequencing; frameworks hold sequencing errors
measure: polyreactivity (PSR sort gate)

{"sequence_text": "QVQLVESGGGLVQAGGSLRLSCAASGSTFGYYAMGWYRQAPGKERELVAVITRGGSTYYADSVKGRFTISRDNAKNTVYLQMNSLKQEDTAVYYCNARVLAVHYGYWGQGTQVTVSS", "measure": "polyreactivity (PSR sort gate)", "result": "high polyreactivity"}
{"sequence_text": "QVQLQESGGGLVQAGGSLRLSCAASGTMSDRPGMGWYRQAPAKNAIVATIDRGTNTNYADSVKGRFTISRDNAKNTVSLQMNSLKPEDSAVYNCAAVGRYYFSLDYWGPGTQVTVSS", "measure": "polyreactivity (PSR sort gate)", "result": "low polyreactivity"}
{"sequence_text": "QVQLVESGGGLVQAGGSLRLSCAASGSTFWWYAMGWYRQAPGKERELVAAISIGGATKYADSVKGRFTISRDNAKNTFYLQMNILKPEDTAVYYCAAVVSYHYVPYGYWGQCTQVTVSS", "measure": "polyreactivity (PSR sort gate)", "result": "low polyreactivity"}
{"sequence_text": "QVQLVESGGGLVQAGGSLRLSCAASGRIFAGNTKGWYRQAPGKERELVAAITSSGGSTYYADSVKGRFTISRDNANTTVYLQMNSLKPEDTAVYYPIVYYVKYYYWGQGTQVTVSS", "measure": "polyreactivity (PSR sort gate)", "result": "high polyreactivity"}
{"sequence_text": "QVQLVESGGGLVQAGGSLRLSCAASGFTFRRYDMGWYRQAPGKERELVATINRGGSTDYADSVKGRFTISRDNAKNTVYLQMNSLKAEDTAVYYCATRYYSSRTWSEYYYWGQGTKVTVSS", "measure": "polyreactivity (PSR sort gate)", "result": "high polyreactivity"}
{"sequence_text": "QVQLVESGGGLVQAGGSLRLSCAASGRTFVYYAMGWYRQAPGKERELVAAITSGGSTYYADSVKGRFTISRDNAKNTVYLQMNSLKPEDTAVYYCNKARVRGARFDYWGQGTQVTVSS", "measure": "polyreactivity (PSR sort gate)", "result": "high polyreactivity"}
{"sequence_text": "QVQLVESGGGLVQAGGSLRLSCAASGSTFQVYAMGLYRQAPGKERELVASITSGGSTYADSVKGRFTISRDNAKNTVYLQINSLKPEDTAVYYCAAGGYFYPYTYDYWGQGTQVTVSS", "measure": "polyreactivity (PSR sort gate)", "result": "low polyreactivity"}
{"sequence_text": "QVQLVESGGGLVQAGGSLRLSCAASGRTFVNYALGWYRQAPGKERELVAAISGGGGTNYADSVKGRFTISRDNAKNTVYLQMNSLKPEDTAVYYCNAVPSQHDEFDYWGQGTQVTVSS", "measure": "polyreactivity (PSR sort gate)", "result": "low polyreactivity"}
{"sequence_text": "QVQLEESGGGLVQAGGSLRLSCAASGSIFTVNAMGWYRQAPGKERELVAAISSGGSTHYADSVKGRFTISRDNAKNTVYLQMNSLKPEDTAVYFCNAAGAYPDRDNYWGQGTQVTVSS", "measure": "polyreactivity (PSR sort gate)", "result": "low polyreactivity"}
{"sequence_text": "QVQHVESGGGLVQAGGSLRLSCAASGRIFPRYAMGWYGQTPGKERELVADISRSGGSTYYADSVKGRFTISRDNAKNSVYLQMNSLKPEDTAVYYCAASQYRRVKQGNYWGQGTQVTVSS", "measure": "polyreactivity (PSR sort gate)", "result": "high polyreactivity"}
{"sequence_text": "QVQLQESGGGLVQAGGSLRLSCAASGSISHYIFRGWYRQAPGKEPEFVAGIGYGGTTNYADSVKGRFTISRDNAKNTVYLQMNSLKPEDTAMYYCAAREATEFYLYYWGQGTQVTVIS", "measure": "polyreactivity (PSR sort gate)", "result": "low polyreactivity"}
